Values compiled from patent US20220112288A1.

target: T1, human CD4 on cells (SKW3 cells; human PBMCs) (human, UniProt P01730 26-458); assay: FACS binning on SKW3 cells; competitor RPA-T4-PE-Dazzle 594; background 783, max binding 15000
T1 construct: whole, on cells; SKW3 CD4 knockout cells served as the negative cell line in the primary screen; also called hCD4; huCD4
endpoint: RPA-T4-PE-Dazzle 594 signal with supernatant
# answer = number (no unit)

Some entries whose results are on file:
>>> meas_value("75110_08K12A (antibody, V domains shown, Tested as non-clonal AlivaMab Mouse Kappa hybridoma supernatant (detected with anti-mouse Fc gamma and anti-human kappa)) VH: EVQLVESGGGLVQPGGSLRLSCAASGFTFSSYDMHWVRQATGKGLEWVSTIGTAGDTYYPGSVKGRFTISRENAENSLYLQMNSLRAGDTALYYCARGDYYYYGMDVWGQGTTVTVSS VL: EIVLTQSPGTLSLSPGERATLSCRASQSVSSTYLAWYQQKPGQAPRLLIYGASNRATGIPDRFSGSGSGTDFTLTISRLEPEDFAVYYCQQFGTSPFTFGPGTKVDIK")
16000
>>> meas_value("75110_06K03A (antibody, V domains shown, Tested as non-clonal AlivaMab Mouse Kappa hybridoma supernatant (detected with anti-mouse Fc gamma and anti-human kappa)) VH: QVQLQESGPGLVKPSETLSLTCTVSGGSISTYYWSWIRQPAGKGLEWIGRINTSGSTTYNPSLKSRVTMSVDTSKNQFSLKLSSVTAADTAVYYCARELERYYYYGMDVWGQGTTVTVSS VL: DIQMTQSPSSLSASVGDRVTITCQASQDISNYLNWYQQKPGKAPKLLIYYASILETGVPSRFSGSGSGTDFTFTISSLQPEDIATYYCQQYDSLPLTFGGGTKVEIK")
15800

Proceeding to the next binder to report its RPA-T4-PE-Dazzle 594 signal with supernatant.
I am curious: what RPA-T4-PE-Dazzle 594 signal with supernatant value has been reported for 75110_10O16A (antibody, V domains shown, Tested as non-clonal AlivaMab Mouse Kappa hybridoma supernatant (detected with anti-mouse Fc gamma and anti-human kappa); also called 75110_10016A) VH: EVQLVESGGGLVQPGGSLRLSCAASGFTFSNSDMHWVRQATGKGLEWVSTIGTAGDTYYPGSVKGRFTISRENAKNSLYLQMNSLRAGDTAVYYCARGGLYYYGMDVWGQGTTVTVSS VL: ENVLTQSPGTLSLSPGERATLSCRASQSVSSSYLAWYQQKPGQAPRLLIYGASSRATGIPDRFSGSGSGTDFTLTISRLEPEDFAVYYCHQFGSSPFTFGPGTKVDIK ?
15300
